Origin of values: patent US20230100838A1

Target: K-Ras G12S (Homo sapiens, UniProt P01116, G12S)
Experiment: K-Ras G12S cross-linking assay (comparable procedure, conjugate formation, TOF mass spectrometry)
Type: binding
Parameters: key: 0: No observed x-linking
Settings: Table 4, percent covalently modified K-Ras by MS
MEASURE NAME: G12S x-linking (%)

Cc1cccc2cccc(N3CCc4c(nc(OC[C@@H]5CCCN5C)nc4NCCN(C)C(=O)NCCCl)C3)c12 [Example 37] :: 0
Fc1ccccc1-c1c(Cl)cc2c(N3CCC(N=C=NCc4ccccc4)CC3)ncnc2c1F [Example 1] :: + (0 < x ≤ 10)
Fc1ccccc1-c1c(Cl)cc2c(NCCNC3=NCCO3)ncnc2c1F [Example 15] :: + (0 < x ≤ 10)
CN=C=NCCN(C)c1ncnc2c(F)c(-c3ccccc3F)c(Cl)cc12 [Example 9] :: + (0 < x ≤ 10)

GET /values?readout=G12S x-linking (%)&item= COCCN=C=NC1CCN(c2nc(OC[C@@H]3CCCN3C)nc3c2CCN(c2cccc4cccc(C)c24)C3)CC1 [Example 20]
++ (10 < x ≤ 100)

GET /values?readout=G12S x-linking (%)&item= CCCN=C=NCCCN(C)c1nc(OC[C@@H]2CCCN2C)nc2c1CCN(c1cccc3cccc(C)c13)C2 [Example 30]
++ (10 < x ≤ 100)

----------
Biological target: GDP-loaded K-Ras (1-169) G12D, C51S, C80L, C118S (Homo sapiens, UniProt P01116, C118S/C51S/C80L/G12D)
Construct: GDP-loaded K-Ras (1-169) G12D, C51S, C80L, C118S
Assay: K-Ras G12D(GDP) cross-linking assay (conjugate formation, TOF mass spectrometry)
Type: binding
Conditions: Table 5; percent covalently modified K-Ras by MS; room temperature; typical compound conc. 2, 10, 25 μM, endpoints 1 and 24 h
Procedure: Protocol: K-Ras G12D(GDP) Cross-Linking Assay […] GDP-loaded K-Ras (1-169) G12D, C51S, C80L, C118S and GDP-loaded K-Ras (1-169) C51S, C80L, C118S were adjusted to 50 μM in K-Ras assay buffer (12.5 mM HEPES, 75 mM NaCl and 1 mM MgCl2 at pH 7.4). […] At each time point, the reactions were analyzed immediately or quenched with 5 μL of a 5% formic acid solution and kept at 4° C. until analysis. […]
MEASURE NAME: G12D x-linking (%)

Cc1cccc2cccc(N3CCc4c(nc(OC[C@@H]5CCCN5C)nc4N4CCC(N=C=NCCc5cccs5)CC4)C3)c12 [Example 95] :: + (0 < x ≤ 20)
Cc1cccc2cccc(N3CCc4c(nc(OC[C@@H]5CCCN5C)nc4N4CCN(C[C@H]5CN5)[C@@H](CC#N)C4)C3)c12 [Example 100] :: + (0 < x ≤ 20)
Cc1ccnc(C(C)C)c1-n1c(=O)nc(N2[C@H](C)CN(C(=O)[C@H]3CN3)C[C@@H]2C)c2cc(F)c(-c3c(O)cccc3F)nc21 [Example 135] :: 0

----------
Target: K-Ras G12S (Homo sapiens, UniProt P01116, G12S)
Test: K-Ras G12S cross-linking assay (comparable procedure, conjugate formation, TOF mass spectrometry)
Assay type: binding
Conditions: Table 5, percent covalently modified K-Ras by MS
MEASURE NAME: G12S x-linking (%)

Cc1cccc2cccc(N3CCc4c(nc(OC[C@@H]5CCCN5C)nc4N4CCC(N=C=NCCCN(C)c5ccccc5)CC4)C3)c12 :: + (0 < x ≤ 10)
Cc1ccnc(C(C)C)c1-n1c(=O)nc(N2CCN(C(=O)[C@@H]3CN3)C[C@@H]2C)c2cc(F)c(-c3c(O)cccc3F)nc21 :: + (0 < x ≤ 10)
Cc1cccc2cccc(N3CCc4c(nc(OC[C@@H]5CCCN5C)nc4N4CCC(N=C=NCCc5cccs5)CC4)C3)c12 :: + (0 < x ≤ 10)
